Measured Ki, listed per entry for reference.
Molecular target: Neuronal acetylcholine receptor; alpha3/beta4 (Homo sapiens, UniProt P30926+P32297)
Sequence (P30926 whole entry): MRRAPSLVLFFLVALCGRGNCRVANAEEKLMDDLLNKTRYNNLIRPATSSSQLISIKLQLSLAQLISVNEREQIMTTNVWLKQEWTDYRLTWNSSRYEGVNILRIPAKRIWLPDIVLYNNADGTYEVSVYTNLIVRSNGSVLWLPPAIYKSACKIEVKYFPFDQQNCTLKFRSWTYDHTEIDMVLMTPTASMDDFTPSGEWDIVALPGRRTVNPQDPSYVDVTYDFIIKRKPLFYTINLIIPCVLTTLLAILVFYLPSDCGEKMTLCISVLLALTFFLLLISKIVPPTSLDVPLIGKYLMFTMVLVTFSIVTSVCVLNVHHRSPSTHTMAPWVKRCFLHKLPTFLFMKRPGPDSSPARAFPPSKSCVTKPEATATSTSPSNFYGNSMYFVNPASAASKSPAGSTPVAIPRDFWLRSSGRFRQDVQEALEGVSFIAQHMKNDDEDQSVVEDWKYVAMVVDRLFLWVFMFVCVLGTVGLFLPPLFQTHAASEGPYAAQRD
Sequence (P32297 whole entry): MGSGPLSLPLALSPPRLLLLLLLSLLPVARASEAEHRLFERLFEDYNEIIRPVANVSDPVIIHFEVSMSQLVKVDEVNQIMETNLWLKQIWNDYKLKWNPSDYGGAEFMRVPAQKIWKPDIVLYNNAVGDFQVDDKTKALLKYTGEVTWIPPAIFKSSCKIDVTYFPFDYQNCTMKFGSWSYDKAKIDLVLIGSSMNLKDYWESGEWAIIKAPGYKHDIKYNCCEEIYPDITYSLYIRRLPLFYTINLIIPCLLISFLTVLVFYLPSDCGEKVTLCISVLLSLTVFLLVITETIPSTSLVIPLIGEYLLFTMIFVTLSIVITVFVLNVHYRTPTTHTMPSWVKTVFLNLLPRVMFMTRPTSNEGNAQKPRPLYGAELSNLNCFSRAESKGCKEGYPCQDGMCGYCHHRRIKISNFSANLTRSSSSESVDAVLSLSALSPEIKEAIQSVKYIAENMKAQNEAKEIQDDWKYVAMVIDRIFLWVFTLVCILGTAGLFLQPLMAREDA
Assay: Displacement of [3H]epibatidine from human alpha3beta4 nAChR expressed in HEK293 cells pretreated for 5 mins followed by [3H]epibatidine addition after overnight incubation by beta counter
A number alone suffices; assume µM.

Here's what some known entries look like.
GIVEN SMILES: CN1CCC[C@H]1[C@H]1COc2ncccc2O1
SYSTEM UNDER TEST: Neuronal acetylcholine receptor; alpha3/beta4 (Homo sapiens, UniProt P30926+P32297)
MEASURE: Ki
SCALE UNIT: µM
VAL: 22
--
GIVEN SMILES: CN1CCC[C@H]1[C@H]1COc2ccncc2O1
SYSTEM UNDER TEST: Neuronal acetylcholine receptor; alpha3/beta4 (Homo sapiens, UniProt P30926+P32297)
MEASURE: Ki
SCALE UNIT: µM
VAL: 8.9
--
GIVEN SMILES: CN1CCC[C@H]1[C@H]1COc2ccccc2O1
SYSTEM UNDER TEST: Neuronal acetylcholine receptor; alpha3/beta4 (Homo sapiens, UniProt P30926+P32297)
MEASURE: Ki
SCALE UNIT: µM
VAL: 8.2
--
GIVEN SMILES: CN1CCC[C@H]1[C@@H]1COc2ccncc2O1
SYSTEM UNDER TEST: Neuronal acetylcholine receptor; alpha3/beta4 (Homo sapiens, UniProt P30926+P32297)
MEASURE: Ki
SCALE UNIT: µM
VAL: 5.8
--
GIVEN SMILES: CN1CCC[C@H]1[C@H]1COc2ccc(O)cc2O1
SYSTEM UNDER TEST: Neuronal acetylcholine receptor; alpha3/beta4 (Homo sapiens, UniProt P30926+P32297)
MEASURE: Ki
SCALE UNIT: µM
VAL: 0.31
--
GIVEN SMILES: CN1CCC[C@H]1[C@@H]1COc2ncccc2O1
SYSTEM UNDER TEST: Neuronal acetylcholine receptor; alpha3/beta4 (Homo sapiens, UniProt P30926+P32297)
MEASURE: Ki
SCALE UNIT: µM
VAL: 16.2

QUERY: Which Ki value is on record for CN1CCC[C@H]1[C@@H]1COc2ccccc2O1 ?
RESULT: 1.2

---

Biological target: Neuronal acetylcholine receptor; alpha3/beta4 (Homo sapiens, UniProt P30926+P32297)
Test: Antagonist activity at human alpha3beta4 nAChR expressed in GH4CL cells by whole-cell patch clamp method
pIC50: −log10 of the molar value.
MEASURE: pIC50

QUERY: # returns recorded pIC50 (system: Neuronal acetylcholine receptor; alpha3/beta4 (Homo sapiens, UniProt P30926+P32297)) for CN1CCC[C@H]1[C@@H]1COc2ccccc2O1
RESULT: 5.55 to 5.56

---

Molecular target: Neuronal acetylcholine receptor; alpha4/beta2 (Homo sapiens, UniProt P17787+P43681)
Sequence (P17787 whole entry): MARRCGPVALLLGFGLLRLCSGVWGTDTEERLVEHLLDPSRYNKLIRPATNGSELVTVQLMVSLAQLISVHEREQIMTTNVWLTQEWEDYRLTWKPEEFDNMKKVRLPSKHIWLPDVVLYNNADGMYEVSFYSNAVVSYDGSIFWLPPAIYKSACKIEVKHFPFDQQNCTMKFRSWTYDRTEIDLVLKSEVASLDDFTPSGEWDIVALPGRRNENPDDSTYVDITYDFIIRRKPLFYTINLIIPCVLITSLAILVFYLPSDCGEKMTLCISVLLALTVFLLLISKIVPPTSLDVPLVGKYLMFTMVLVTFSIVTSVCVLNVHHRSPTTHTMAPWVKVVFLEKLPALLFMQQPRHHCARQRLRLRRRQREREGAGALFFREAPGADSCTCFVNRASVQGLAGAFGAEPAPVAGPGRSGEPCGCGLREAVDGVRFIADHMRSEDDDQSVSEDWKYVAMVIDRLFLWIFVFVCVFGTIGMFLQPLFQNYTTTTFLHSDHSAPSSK
Sequence (P43681 whole entry): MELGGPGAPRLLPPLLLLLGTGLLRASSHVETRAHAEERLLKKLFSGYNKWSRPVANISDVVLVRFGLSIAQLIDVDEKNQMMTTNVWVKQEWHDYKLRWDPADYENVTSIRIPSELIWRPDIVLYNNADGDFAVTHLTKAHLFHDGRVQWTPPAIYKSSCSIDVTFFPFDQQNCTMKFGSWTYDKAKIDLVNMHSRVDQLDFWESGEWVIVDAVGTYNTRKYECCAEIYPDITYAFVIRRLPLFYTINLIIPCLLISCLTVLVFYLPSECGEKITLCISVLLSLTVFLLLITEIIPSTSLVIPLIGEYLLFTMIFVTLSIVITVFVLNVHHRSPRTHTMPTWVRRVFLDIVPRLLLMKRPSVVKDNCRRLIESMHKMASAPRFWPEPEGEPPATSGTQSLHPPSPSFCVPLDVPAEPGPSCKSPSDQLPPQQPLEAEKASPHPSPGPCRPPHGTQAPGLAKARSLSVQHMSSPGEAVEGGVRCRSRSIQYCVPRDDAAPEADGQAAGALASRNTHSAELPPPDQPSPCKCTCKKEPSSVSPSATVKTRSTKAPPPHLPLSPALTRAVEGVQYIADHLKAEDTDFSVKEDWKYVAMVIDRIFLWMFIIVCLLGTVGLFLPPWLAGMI
Experiment: Antagonist activity at human alpha4beta2 nAChR expressed in GH4CL cells by whole-cell patch clamp method
MEASURE: IC50

QUERY: Need IC50 of CN1CCC[C@H]1[C@@H]1COc2ccccc2O1 , thanks.
RESULT: 5.36 to 5.4 µM

---

Assay: Displacement of [3H]epibatidine from rat cerebral cortex membrane alpha4beta2* nAChR pretreated for 5 mins followed by [3H]epibatidine addition after overnight incubation by beta counter
Measured log10 of Ki, listed per entry for reference.
Units before log transform: nM; reported quantity: Ki; transform: log10.

GIVEN SMILES: COc1ccc(O)cc1OC[C@@H]1CCCN1C
MEASURE: log10 of Ki
VAL: 1.28

QUERY: I have this molecule here, CN1CCC[C@H]1[C@@H]1COc2cccnc2O1 , and I need its recorded log10 of Ki.
RESULT: 4.63

QUERY: Need log10 of Ki, item CN1CCC[C@H]1[C@@H]1COc2ccncc2O1
RESULT: 3.21

QUERY: Look up log10 of Ki: CN1CCC[C@H]1[C@@H]1COc2ccccc2O1
RESULT: 2.41

QUERY: Please give the measured log10 of Ki for this molecule: C[C@@H](Oc1cccc(O)c1)[C@@H]1CCCN1C
RESULT: 1.04

QUERY: Name the recorded log10 of Ki for CN1CCC[C@H]1[C@H]1COc2ccc(O)cc2O1 .
RESULT: 1.08

QUERY: So what's the measured log10 of Ki for this one? CN1CCC[C@H]1[C@H]1COc2ncccc2O1
RESULT: 4.48

---

Organism: Rattus norvegicus
Assay: Selectivity ratio of Ki for displacement of [125I]alpha-bungarotoxin from rat hippocampus membrane alpha7* nAChR to Ki for displacement of [3H]epibatidine from rat cerebral cortex membrane alpha4beta2* nAChR
Criterion: Ratio Ki strictly less than 60. Met: yes (1). Not met: no (0).

Below are worked cases with known answers.
GIVEN SMILES: CN1CCC[C@H]1[C@@H]1COc2ncccc2O1
ANSWER LABEL: no (0)
--
GIVEN SMILES: CN1CCC[C@H]1[C@@H]1COc2ccccc2O1
ANSWER LABEL: no (0)
--
GIVEN SMILES: CN1CCC[C@H]1[C@H]1COc2ccc(O)cc2O1
ANSWER LABEL: yes (1)

Please look at the following molecule next.
QUERY: Regarding C[C@@H](Oc1cccc(O)c1)[C@@H]1CCCN1C , kindly confirm whether its Ratio Ki is beneath 60.
RESULT: yes (1)

---

Experiment: Displacement of [125I]alpha-bungarotoxin from rat hippocampus membrane alpha7* nAChR pretreated for 5 mins followed by [125I]alpha-bungarotoxin addition after overnight incubation by gamma counter
Measured pKi, listed per entry for reference.
Note: pKi values are expressed as the negative base-10 logarithm of concentration in M.

GIVEN SMILES: C[C@@H](Oc1cccc(O)c1)[C@@H]1CCCN1C
MEASURE: pKi
VAL: 7.24

QUERY: Name the reported pKi value associated with the molecule CN1CCC[C@H]1[C@H]1COc2ccc(O)cc2O1
RESULT: 6.37

QUERY: Quick one: pKi for COc1ccc(O)cc1OC[C@@H]1CCCN1C ?
RESULT: 5.94

QUERY: Query: pKi; subject: CN1CCC[C@H]1[C@@H]1COc2ccccc2O1
RESULT: 4.68

QUERY: What value of pKi has been reported for the following molecule? CN1CCC[C@H]1[C@H]1COc2ccccc2O1
RESULT: 4.84

QUERY: pKi lookup needed for CN1CCC[C@H]1[C@@H]1COc2cccnc2O1 , thanks.
RESULT: 4.62

QUERY: Fill in: pKi of CN1CCC[C@H]1[C@H]1COc2cccnc2O1 is ___
RESULT: 4.92

QUERY: Give its pKi value. Item: CN1CCC[C@H]1[C@@H]1COc2ncccc2O1
RESULT: 4.05

---

Biological target: Neuronal acetylcholine receptor; alpha4/beta2 (Rattus norvegicus, UniProt P09483+P12390)
Sequence (P09483 whole entry): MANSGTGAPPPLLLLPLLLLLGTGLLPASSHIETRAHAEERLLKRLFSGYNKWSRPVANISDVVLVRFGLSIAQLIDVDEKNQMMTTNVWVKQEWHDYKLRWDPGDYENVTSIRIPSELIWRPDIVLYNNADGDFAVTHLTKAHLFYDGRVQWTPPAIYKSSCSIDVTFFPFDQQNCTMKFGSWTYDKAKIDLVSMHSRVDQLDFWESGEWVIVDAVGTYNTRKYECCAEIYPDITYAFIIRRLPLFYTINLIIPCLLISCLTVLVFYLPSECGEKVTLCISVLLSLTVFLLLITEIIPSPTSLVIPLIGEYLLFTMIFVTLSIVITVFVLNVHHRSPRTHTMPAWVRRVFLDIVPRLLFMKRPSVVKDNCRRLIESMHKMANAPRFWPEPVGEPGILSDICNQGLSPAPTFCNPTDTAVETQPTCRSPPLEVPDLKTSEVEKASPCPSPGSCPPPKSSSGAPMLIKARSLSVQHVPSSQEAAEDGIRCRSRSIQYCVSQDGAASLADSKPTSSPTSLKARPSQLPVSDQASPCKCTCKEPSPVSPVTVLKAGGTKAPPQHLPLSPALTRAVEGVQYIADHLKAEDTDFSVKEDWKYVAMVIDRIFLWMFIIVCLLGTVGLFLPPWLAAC
Sequence (P12390 whole entry): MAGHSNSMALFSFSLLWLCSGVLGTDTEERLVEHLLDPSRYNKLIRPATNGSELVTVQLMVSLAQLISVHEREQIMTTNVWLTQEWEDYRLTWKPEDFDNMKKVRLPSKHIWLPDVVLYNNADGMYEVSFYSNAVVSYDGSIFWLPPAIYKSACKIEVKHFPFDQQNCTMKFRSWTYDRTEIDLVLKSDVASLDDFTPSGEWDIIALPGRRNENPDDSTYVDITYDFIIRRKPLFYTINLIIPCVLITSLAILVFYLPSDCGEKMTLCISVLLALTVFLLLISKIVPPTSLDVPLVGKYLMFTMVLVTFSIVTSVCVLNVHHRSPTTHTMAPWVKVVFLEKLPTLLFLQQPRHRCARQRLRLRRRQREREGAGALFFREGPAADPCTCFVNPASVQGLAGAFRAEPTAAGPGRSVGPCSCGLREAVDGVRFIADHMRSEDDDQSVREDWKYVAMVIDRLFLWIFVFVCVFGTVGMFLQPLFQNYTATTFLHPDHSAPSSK
Test: Displacement of [3H](-)cytisine from rat whole brain alpha4beta2 nAChR
MEASURE: Ki (µM)
Value expressed in µM; do not type the unit.

QUERY: Recall the recorded Ki for CN1CCC[C@H]1c1cc2ccccc2o1 with Neuronal acetylcholine receptor; alpha4/beta2 (Rattus norvegicus, UniProt P09483+P12390) and state it.
RESULT: 0.16

---

Assay: Displacement of [3H]epibatidine from rat cerebral cortex membrane alpha4beta2* nAChR pretreated for 5 mins followed by [3H]epibatidine addition after overnight incubation by beta counter
Here the recorded pKi is given for each entry.
# reply with the number alone; pKi is -log10 of concentration in mol/L

QUERY: // returns reported pKi for input CN1CCC[C@H]1[C@@H]1COc2ncccc2O1
RESULT: 6.39

QUERY: Bench note: what pKi did CN1CCC[C@H]1[C@H]1COc2cccnc2O1 show?
RESULT: 4.52

QUERY: Which measured pKi value corresponds to CN1CCC[C@H]1[C@H]1COc2ccccc2O1 ?
RESULT: 6.33

QUERY: Requested field: pKi. Item: CN1CCC[C@H]1[C@H]1COc2ccncc2O1
RESULT: 5.44
